Biological target: Tyrosyl-tRNA synthetase, putative (Trypanosoma cruzi (strain CL Brener)) (UniProt Q4DSP6)
Sequence (whole entry): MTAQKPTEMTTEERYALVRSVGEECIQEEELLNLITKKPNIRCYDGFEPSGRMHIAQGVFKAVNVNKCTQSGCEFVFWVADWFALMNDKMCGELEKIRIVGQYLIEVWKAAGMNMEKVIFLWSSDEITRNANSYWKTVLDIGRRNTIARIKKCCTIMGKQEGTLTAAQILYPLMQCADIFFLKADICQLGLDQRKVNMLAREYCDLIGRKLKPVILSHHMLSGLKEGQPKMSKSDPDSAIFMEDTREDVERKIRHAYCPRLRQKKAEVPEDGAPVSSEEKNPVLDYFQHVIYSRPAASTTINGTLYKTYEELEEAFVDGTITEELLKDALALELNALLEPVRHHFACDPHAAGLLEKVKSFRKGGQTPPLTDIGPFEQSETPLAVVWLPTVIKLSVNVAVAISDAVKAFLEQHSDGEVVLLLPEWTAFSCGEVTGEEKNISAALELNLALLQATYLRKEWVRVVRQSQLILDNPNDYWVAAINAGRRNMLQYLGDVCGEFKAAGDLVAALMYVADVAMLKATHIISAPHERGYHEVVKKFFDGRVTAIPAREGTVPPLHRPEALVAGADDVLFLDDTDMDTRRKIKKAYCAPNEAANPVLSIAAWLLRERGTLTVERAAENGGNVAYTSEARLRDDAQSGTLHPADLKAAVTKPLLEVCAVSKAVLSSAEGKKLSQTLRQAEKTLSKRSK
Experiment: Trypanosoma cruzi tyrosyl tRNA synthetase (TcYRS) _High Tyrosine SOP
Format: functional
Design: scale not given: in the data most compounds retested in dose-response had high values
Conditions: 30 µM
Each item that follows carries a reported Percent Effect.
measurement.type: Percent Effect

> print(dat)
                                   molecule    value
1  Cc1ccc(C2CSCCN2C(=O)c2ccc(C(N)=O)cc2)o1 (stereo unspecified)     4.3%
2  Cc1ncsc1C(=O)N1CCCC(c2noc(C(C)C)n2)C1 (stereo unspecified)    6.32%
3  CN1CCCC1c1ccc(C(=O)N2CCc3ccccc3C2)s1 (stereo unspecified)    3.23%
4  CC(C)c1nn(C)c(N(C)C)c1CNCc1ccc2c(c1)OCO2  -0.493%
5  CN(Cc1ccsc1)C(=O)c1cc2c([nH]c1=O)CCCC2=O    4.95%
6  COC(=O)CCc1c(C)nn(-c2nc(C)cc(=O)[nH]2)c1C    7.41%
